Below: a set of entries, each annotated with reported IC50.
- system tested: K103NNY181C mutant reverse transcriptase (Human immunodeficiency virus type 1 group M subtype B, UniProt P04585, K690N/Y768C)
- Construct: mutations that occur in the reverse transcriptase segment of the pol gene
- procedure summary: Reverse transcriptase enzymatic assay (PicoGreen), K103N/Y181C mutant RT
- Format: biochemical, HIV-1
- condition description: IC50 mut (nM), mutant (K103N/Y181C) reverse transcriptase, enzymatic assay of Example 24
readout type: IC50 (nM)

compound smiles | endpoint result
CC(C)(C)c1ccc(-n2nnnc2SCC(=O)Nc2ccc(NC(=O)c3cccc(O)c3)cc2Cl)c(Cl)c1 | 128
CC(C)(C)c1ccc(-n2nnnc2SCC(=O)Nc2ccc(NC(=O)Cc3cc[n+]([O-])cc3)cc2Cl)c(Cl)c1 | 140
COc1cccc(CC(=O)Nc2ccc(NC(=O)CSc3nnnn3-c3ccc(C(C)(C)C)cc3Cl)c(Cl)c2)c1 | 145
CC(C)(C)c1ccc(-n2nnnc2SCC(=O)Nc2ccc(NC(=O)c3ccc(O)cc3)cc2Cl)c(Cl)c1 | 181
